Assay: Percent inhibition of human liver microsome cytochrome P-450 mediated phenacetin O-deethylase activity without NADPH; Phenacetin O-deethylase activity inhibited by 40%
Conditions: microsomes
MEASUREMENT_NAME: Inhibition

Prompt: Record request: Inhibition value, item CCOC(=O)C1=C(C)N=C(C)/C(=C(/O)OCC)C1CC (stereo unspecified)
Completion: 40%

* * *

Target: Cytochrome P450 3A4 (Homo sapiens)
Assay: Rate of Oxidation in human liver microsomes is measured as mean (nmol product) formed / min per nmol cytochrome P-450
API: label(entry) gives Fulfilled if the entry's Rate of oxidation is strictly smaller than 0.5; on equality or larger values it gives Not fulfilled.

Example entries begin here.
| COMPOUND | CLASS_ASSIGNMENT |
| --- | --- |
| COC(=O)C1=C(C)N=C(C)/C(=C(/O)OC)C1C1CC=CCC1 (centres undefined) | Fulfilled |
| COC(=O)C1=C(C)N=C(C)/C(=C(/O)OC)C1c1ccc(Cl)c([N+](=O)[O-])c1 (centres undefined) | Not fulfilled |
| CCCCCO/C(O)=C1\C(C)=NC(C)=C(C(=O)OCCOCCC)C1c1cccc([N+](=O)[O-])c1 (centres undefined) | Not fulfilled |

Prompt: Here's an entry: COC(=O)C1=C(C)N=C(C)/C(=C(/O)OC)C1c1c(F)c(F)cc(F)c1F (centres undefined) . Is its Rate of oxidation below 0.5?
Completion: Not fulfilled

Prompt: Also CCOC(=O)C1=C(C)N=C(C)/C(=C(/O)OCC)C1CC (centres undefined) ?
Completion: Fulfilled

Prompt: Then CCOC(=O)C1=C(C)NC(C)=C(C(=O)OC)C1c1cccc([N+](=O)[O-])c1 (centres undefined) [NITRENDIPINE] ?
Completion: Not fulfilled

Prompt: Try COC(=O)C1=C(C)N=C(C)/C(=C(/O)OC)C1Cc1ccccc1 (centres undefined) next.
Completion: Fulfilled

* * *

Target: Cytochrome P450 3A4 (Homo sapiens, UniProt P08684)
Sequence (P08684 whole entry): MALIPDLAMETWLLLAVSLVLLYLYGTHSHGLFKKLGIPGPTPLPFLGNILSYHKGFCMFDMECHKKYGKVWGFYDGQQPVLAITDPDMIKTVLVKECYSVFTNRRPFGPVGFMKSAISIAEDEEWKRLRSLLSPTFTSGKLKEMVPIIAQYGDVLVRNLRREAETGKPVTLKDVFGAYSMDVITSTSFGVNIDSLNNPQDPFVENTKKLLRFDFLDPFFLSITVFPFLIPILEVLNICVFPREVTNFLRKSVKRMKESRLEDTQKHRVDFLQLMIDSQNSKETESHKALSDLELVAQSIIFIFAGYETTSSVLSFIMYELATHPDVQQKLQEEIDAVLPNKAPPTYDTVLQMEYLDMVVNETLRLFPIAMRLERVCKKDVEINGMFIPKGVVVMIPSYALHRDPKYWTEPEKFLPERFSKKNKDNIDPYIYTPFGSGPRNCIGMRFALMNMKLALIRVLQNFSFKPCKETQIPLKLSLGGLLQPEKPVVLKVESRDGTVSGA
Assay: Percent inhibition of human liver microsome cytochrome P-450 mediated nifedipine oxidase activity in the presence of NADPH
Settings: microsomes
Measured Inhibition of individual entries
Response body: numeric value in %, unit text excluded.

A selection of reference data follows.
| MOLECULE | TESTED_SYSTEM | Inhibition, % |
| --- | --- | --- |
| COC(=O)C1=C(C)N=C(C)/C(=C(/O)OC)C1C1CC=CCC1 (centres undefined) | Cytochrome P450 3A4 (Homo sapiens, UniProt P08684) | 86 |
| COC(=O)C1=C(C)N=C(C)/C(=C(/O)OC)C1Cc1ccccc1 (centres undefined) | Cytochrome P450 3A4 (Homo sapiens, UniProt P08684) | 86 |
| CCOC(=O)C1=C(C)N=C(C)/C(=C(/O)OCC)C1CC (centres undefined) | Cytochrome P450 3A4 (Homo sapiens, UniProt P08684) | 89 |

Then there is this molecule:
Prompt: Value wanted: Inhibition (Cytochrome P450 3A4 (Homo sapiens, UniProt P08684)) of entry COC(=O)C1=C(C)N=C(C)/C(=C(/O)OC)C1C(C)C (centres undefined)
Completion: 89

* * *

Target: Cytochrome P450 3A4 (Homo sapiens, UniProt P08684)
Experiment: Percent inhibition of human liver microsome cytochrome P-450 mediated nifedipine oxidase activity without NADPH
Settings: microsomes
The following compounds are listed with their measured Inhibition values.
Please reply with the bare figure in % and do not write the unit itself.

| COMPOUND | UNITS_LABEL | MEAS_VALUE |
| --- | --- | --- |
| COC(=O)C1=C(C)N=C(C)/C(=C(/O)OC)C1Cc1ccccc1 (centres undefined) | % | 25 |
| CCOC(=O)C1=C(C)N=C(C)/C(=C(/O)OCC)C1CC (centres undefined) | % | 45 |
| COC(=O)C1=C(C)N=C(C)/C(=C(/O)OC)C1C1CC=CCC1 (centres undefined) | % | 27 |

Here's the next entry for you.
Prompt: Short answer please: Inhibition, Cytochrome P450 3A4 (Homo sapiens, UniProt P08684), entry COC(=O)C1=C(C)N=C(C)/C(=C(/O)OC)C1C(C)C (centres undefined)
Completion: 32
